Parameter IC50: see the listing below.
Measured On: intracellular GCN2 (phosphorylation of the GCN2 substrate eIF2α) (Homo sapiens)
Measurement Notes: GCN2 cellular inhibition assay (AlphaScreen SureFire P-eIF2α Ser51, borrelidin-treated U2OS cells)
Assay type: cell-based
Condition Context: compounds of Formula II; biomarker assay, phosphorylated eIF2α Ser51 in borrelidin-treated U2OS cells

[[record]]
compound = "NS(=O)(=O)CC1CCCN(c2cc(-c3cnc4ccc(C(F)F)nn34)ncn2)C1 (stereo not drawn)"
assay_result = "< 500 nM"


Data request: May I ask what IC50 has been recorded for CS(=O)(=O)NCC1CCCN(c2cc(-c3cnc4ccc(C(F)F)nn34)cc(N3CCNCC3)n2)C1 (stereo not drawn) ?
Data returned: 500 to 5000 nM

Data request: May I ask what IC50 has been recorded for CC1(O)CCN(c2cc(-c3cnc4ccc(C(F)F)nn34)ncn2)CC1CNS(C)(=O)=O (stereo not drawn) [II-240] ?
Data returned: < 500 nM

Data request: May I ask what IC50 has been recorded for `FC(F)c1ccc2ncc(-c3cc(N4CC5(COC5)C4)ncn3)n2n1` ?
Data returned: > 5000 nM

###

Parameter Ki: see the listing below.
Measured On: GCN2 kinase (Homo sapiens)
Sequence (Q9P2K8 whole entry): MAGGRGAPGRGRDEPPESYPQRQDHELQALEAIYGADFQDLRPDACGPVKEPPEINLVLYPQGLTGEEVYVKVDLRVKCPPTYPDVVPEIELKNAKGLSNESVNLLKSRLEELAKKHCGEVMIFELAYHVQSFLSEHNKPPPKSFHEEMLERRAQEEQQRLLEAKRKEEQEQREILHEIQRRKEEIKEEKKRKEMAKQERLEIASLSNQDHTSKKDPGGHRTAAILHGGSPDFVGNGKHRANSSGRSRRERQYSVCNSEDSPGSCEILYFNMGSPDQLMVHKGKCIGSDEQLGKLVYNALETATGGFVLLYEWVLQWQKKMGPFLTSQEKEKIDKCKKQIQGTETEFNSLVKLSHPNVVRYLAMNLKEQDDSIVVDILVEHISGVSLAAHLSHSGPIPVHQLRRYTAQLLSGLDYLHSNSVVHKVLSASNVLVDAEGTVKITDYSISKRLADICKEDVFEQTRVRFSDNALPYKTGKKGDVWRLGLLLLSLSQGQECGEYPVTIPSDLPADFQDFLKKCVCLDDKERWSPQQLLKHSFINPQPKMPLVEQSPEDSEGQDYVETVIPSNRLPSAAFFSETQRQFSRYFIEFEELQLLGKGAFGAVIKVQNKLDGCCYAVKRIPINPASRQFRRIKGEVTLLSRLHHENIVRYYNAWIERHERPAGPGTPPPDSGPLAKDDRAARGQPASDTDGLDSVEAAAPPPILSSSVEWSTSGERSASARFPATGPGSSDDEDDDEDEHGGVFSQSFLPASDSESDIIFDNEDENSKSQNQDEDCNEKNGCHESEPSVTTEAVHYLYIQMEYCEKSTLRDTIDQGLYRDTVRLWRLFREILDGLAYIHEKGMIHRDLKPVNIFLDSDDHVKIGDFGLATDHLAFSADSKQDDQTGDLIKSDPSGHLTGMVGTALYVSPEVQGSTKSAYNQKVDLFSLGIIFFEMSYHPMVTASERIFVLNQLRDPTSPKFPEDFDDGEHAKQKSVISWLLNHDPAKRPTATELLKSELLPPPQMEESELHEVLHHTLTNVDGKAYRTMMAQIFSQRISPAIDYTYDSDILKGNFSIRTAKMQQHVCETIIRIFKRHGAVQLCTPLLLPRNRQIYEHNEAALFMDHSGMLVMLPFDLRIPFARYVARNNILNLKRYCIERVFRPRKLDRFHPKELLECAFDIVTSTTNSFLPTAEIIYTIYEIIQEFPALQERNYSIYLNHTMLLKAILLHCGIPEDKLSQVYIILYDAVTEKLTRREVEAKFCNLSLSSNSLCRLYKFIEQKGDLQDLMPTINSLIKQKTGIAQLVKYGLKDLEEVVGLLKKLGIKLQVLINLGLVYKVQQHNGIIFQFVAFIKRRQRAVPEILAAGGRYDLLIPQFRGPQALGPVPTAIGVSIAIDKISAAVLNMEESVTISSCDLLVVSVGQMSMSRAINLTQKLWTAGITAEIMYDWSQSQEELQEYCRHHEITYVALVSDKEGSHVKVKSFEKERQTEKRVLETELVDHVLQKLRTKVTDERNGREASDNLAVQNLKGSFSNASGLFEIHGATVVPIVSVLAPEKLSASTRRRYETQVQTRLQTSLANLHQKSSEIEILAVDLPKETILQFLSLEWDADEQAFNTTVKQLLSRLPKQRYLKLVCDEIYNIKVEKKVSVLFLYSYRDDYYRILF
Measurement Notes: GCN2 enzyme inhibition assay (Transcreener ADP2 fluorescence polarization)
Assay type: biochemical
Condition Context: Enzyme activity for compounds of Formula IV; Ki(app), 280 μM ATP, 25° C.

Example results:
[[record]]
compound = "FC(F)(F)c1cn2c(-c3nccc(N4CCC(c5ccccc5)C4)n3)cnc2cn1 (centres unmarked) [IV-556]"
measured_on = "GCN2 kinase (Homo sapiens)"
assay_result = "100 to 1000 nM"

[[record]]
compound = "O=S1(=O)CCCN1C1CCCN(c2ccnc(-c3cnc4cnc(C(F)(F)F)cn34)n2)C1 (centres unmarked) [IV-658]"
measured_on = "GCN2 kinase (Homo sapiens)"
assay_result = "100 to 1000 nM"

[[record]]
compound = "CS(=O)(=O)CC1CCN(c2ccnc(-c3cnc4cnc(C(F)(F)F)cn34)n2)C1 (centres unmarked) [IV-604]"
measured_on = "GCN2 kinase (Homo sapiens)"
assay_result = "100 to 1000 nM"

[[record]]
compound = "CC1C(c2cn[nH]c2)CCN1c1ccnc(-c2cnc3cnc(C(F)(F)F)cn23)n1 (centres unmarked) [IV-689]"
measured_on = "GCN2 kinase (Homo sapiens)"
assay_result = "10 to 100 nM"


# next compound below
Data request: May I ask what Ki has been recorded for CC1CN(c2ccnc(-c3cnc4cnc(C(F)F)cn34)n2)CC(C)O1 (centres unmarked) [IV-119] ?
Data returned: 100 to 1000 nM

###

Measured On: intracellular GCN2 (phosphorylation of the GCN2 substrate eIF2α) (Homo sapiens, UniProt Q9P2K8)
Sequence (Q9P2K8 whole entry): as above
Measurement Notes: GCN2 cellular inhibition assay (AlphaScreen SureFire P-eIF2α Ser51, borrelidin-treated U2OS cells)
Format: cell-based
Condition Context: compounds of Formula IV; biomarker assay, phosphorylated eIF2α Ser51 in borrelidin-treated U2OS cells
Experimental Readout: IC50

[[record]]
compound = "CC1CN(c2ccnc(-c3cnc4cnc(C(F)(F)F)cn34)n2)C(C)C(c2c[nH]cn2)O1 (single isomer, unassigned) [IV-639]"
assay_result = "< 500 nM"

[[record]]
compound = "Cc1n[nH]cc1C1=CCCN(c2ccnc(-c3cnc4cnc(C(F)F)cn34)n2)C1"
assay_result = "500 to 5000 nM"

[[record]]
compound = "COc1cc(N2CC(C)NC(c3cn[nH]c3)C2C)nc(-c2cnc3cnc(C(F)(F)F)cn23)n1 (stereo not shown)"
assay_result = "500 to 5000 nM"


# next compound below
Data request: May I ask what IC50 has been recorded for C[C@H]1[C@@H](c2cn[nH]c2)CCCN1c1ccnc(-c2cnc3cnc(Br)cn23)n1 (relative stereo) ?
Data returned: < 500 nM

Data origin: patent US10988477B2
